Task for the reader: assign each of the following compounds its reported Ki.
TARGET_OR_TEST_SYSTEM: Alpha-mannosidase (Canavalia ensiformis, UniProt C0HJB3)
Sequence (C0HJB3 whole entry): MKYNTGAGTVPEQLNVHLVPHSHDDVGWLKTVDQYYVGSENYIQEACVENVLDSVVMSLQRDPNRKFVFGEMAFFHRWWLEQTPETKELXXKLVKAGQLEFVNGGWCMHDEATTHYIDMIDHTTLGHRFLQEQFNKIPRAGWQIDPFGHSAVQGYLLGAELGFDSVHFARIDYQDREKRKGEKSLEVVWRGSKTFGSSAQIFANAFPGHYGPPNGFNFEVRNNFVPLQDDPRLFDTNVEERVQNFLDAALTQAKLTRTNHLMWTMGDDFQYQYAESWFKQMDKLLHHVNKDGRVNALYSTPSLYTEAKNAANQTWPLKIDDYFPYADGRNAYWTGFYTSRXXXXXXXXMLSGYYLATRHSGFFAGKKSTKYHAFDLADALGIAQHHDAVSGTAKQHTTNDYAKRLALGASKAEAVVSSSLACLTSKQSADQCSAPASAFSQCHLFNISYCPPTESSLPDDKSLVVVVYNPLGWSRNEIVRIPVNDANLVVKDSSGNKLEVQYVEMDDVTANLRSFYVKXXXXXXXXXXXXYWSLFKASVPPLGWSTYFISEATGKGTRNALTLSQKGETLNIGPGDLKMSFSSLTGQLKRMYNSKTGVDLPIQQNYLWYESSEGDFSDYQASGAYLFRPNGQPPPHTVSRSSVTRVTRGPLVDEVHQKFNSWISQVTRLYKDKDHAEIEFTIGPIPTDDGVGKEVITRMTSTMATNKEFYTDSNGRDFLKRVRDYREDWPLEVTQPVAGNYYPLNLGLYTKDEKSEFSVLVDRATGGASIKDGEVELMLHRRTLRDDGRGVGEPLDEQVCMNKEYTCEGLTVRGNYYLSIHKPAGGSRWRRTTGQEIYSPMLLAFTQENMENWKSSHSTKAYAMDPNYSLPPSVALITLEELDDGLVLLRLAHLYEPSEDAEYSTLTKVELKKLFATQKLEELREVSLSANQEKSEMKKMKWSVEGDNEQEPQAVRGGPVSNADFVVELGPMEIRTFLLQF

Sample records with Ki:
INSERT INTO measurements (chemical_string, measured_attribute, result) VALUES
  ('[N-]=[N+]=NCCCCCCN[C@@H]1[C@@H](O)[C@@H](O)[C@H](O)[C@H]2COC(=O)N21', 'Ki', '0.5 to 50 µM'),
  ('N[C@@H]1[C@@H](O)[C@@H](O)[C@H](O)[C@H]2COC(=O)N12', 'Ki', '7 µM');

I would be grateful if you could provide Ki for each of the following entries.
1. CCCCCCCCN[C@@H]1[C@@H](O)[C@@H](O)[C@H](O)[C@H]2COC(=O)N21
2. CC(C)(C)OC(=O)NCCCCCCCCCN[C@@H]1[C@@H](O)[C@@H](O)[C@H](O)[C@H]2COC(=O)N21
3. [N-]=[N+]=NCCCCCCCCCN[C@@H]1[C@@H](O)[C@@H](O)[C@H](O)[C@H]2COC(=O)N21

1. 3.2 µM
2. 0.5 to 50 µM
3. 0.5 to 50 µM

Looking for the measured Ki of `CCCc1cn(CCCCCCN[C@@H]2[C@@H](O)[C@@H](O)[C@H](O)[C@H]3COC(=O)N32)nn1` , can you help?
0.5 to 50 µM
